Each recorded value in this set is attributed to paper PMC12605528.

- Study System: PD-L1 (Homo sapiens)
- Sequence (Q9NZQ7 19-290): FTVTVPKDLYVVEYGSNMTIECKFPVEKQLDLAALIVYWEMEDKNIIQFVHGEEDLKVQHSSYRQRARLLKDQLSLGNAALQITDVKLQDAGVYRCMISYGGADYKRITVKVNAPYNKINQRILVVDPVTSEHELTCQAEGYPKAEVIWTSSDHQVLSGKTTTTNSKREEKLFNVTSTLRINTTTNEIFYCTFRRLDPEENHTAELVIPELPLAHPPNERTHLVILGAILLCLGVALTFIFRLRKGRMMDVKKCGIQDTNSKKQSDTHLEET
- Assay Remarks: ITC; MicroCal iTC200, 25 °C, PBS pH 7.4; peptide at 500 μM in the syringe, PD-L1 or HSC70 at 2.5 μM in the sample chamber; 20 injections of 2 μL
Measurement Type: Kd (nM)

Substance | Quantitative Readout
bifunctional peptide a (CKFERQ-PEG3-nyskptdrqyhf) | 410

---

- Study System: HSC70 (Homo sapiens, UniProt P11142)
- Sequence (P11142 whole entry): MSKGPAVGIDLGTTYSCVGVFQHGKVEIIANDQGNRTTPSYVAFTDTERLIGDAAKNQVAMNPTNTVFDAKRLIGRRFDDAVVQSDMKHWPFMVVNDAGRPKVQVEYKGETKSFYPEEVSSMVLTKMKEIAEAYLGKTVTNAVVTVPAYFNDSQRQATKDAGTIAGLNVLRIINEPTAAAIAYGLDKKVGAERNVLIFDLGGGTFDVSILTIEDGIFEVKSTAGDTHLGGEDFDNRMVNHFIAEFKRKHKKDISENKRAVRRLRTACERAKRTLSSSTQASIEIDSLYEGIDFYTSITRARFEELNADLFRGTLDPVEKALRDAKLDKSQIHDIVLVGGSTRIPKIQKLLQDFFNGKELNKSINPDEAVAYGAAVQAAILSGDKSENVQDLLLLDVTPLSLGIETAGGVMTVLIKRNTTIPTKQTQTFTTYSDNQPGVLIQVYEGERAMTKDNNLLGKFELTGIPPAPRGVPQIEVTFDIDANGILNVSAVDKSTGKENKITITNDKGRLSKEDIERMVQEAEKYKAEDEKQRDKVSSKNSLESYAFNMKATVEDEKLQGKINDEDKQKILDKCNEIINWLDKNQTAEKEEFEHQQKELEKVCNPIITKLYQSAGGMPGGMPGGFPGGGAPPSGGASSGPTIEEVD
- Assay Remarks: ITC; MicroCal iTC200, 25 °C, PBS pH 7.4; peptide at 500 μM in the syringe, PD-L1 or HSC70 at 2.5 μM in the sample chamber; 20 injections of 2 μL

Substance | Unit Of Measure | Kd
bifunctional peptide a (CKFERQ-PEG3-nyskptdrqyhf) | nM | 1280
